Experiment: self-splicing fitness, log relative to wild type (ln ratio); higher = more splicing; Tetrahymena group I intron in knt gene, E. coli kanamycin selection, DiMSum; sequences stand for … in CUCUCU…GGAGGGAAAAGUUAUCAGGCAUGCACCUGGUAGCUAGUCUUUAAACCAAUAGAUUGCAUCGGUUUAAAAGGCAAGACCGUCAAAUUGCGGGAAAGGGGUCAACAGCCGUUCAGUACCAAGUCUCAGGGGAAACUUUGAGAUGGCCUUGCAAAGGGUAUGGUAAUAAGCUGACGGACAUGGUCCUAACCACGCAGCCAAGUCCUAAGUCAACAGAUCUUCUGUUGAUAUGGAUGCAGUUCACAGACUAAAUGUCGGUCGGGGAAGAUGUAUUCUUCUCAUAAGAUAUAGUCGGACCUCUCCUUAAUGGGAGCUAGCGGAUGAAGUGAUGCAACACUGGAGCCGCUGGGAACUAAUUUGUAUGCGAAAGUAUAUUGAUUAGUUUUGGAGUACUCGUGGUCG;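 also: selection with 25 µg/mL kanamycin versus none on LB agar overnight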
Conditions: 30 °C
property.label: self-splicing fitness (ln)
Write the number on its own, no unit after it.

Could you share which self-splicing fitness (ln) value was measured for "UCUGAGCAAUAUUACGGCAC" ?
-4.07

Now the sequence "CGUCAGCAAUAUUACGGAAA"
-2.57

Next up: "CGACAGCAAUAUUACGAGCC"
-3.59

Same read-out for "ACGAAGCAAUAUUACGUGUC" ?
-3.76

How about this sequence: "AUACAGCAAUAUUACGUUAC"
-3.94

Also "CUUCAGCAAUAUUACGAGAG" ?
-2.81

Another: "UUAUAGCAAUAUUACGCGGA"
-1.6

What about "UUUAAGCAAUAUUACGCAUG" ?
-1.07

---

Assay: self-splicing fitness, log relative to wild type (ln ratio); higher = more splicing; Tetrahymena group I intron in knt gene, E. coli kanamycin selection, DiMSum; sequences stand for … in CUCUCU…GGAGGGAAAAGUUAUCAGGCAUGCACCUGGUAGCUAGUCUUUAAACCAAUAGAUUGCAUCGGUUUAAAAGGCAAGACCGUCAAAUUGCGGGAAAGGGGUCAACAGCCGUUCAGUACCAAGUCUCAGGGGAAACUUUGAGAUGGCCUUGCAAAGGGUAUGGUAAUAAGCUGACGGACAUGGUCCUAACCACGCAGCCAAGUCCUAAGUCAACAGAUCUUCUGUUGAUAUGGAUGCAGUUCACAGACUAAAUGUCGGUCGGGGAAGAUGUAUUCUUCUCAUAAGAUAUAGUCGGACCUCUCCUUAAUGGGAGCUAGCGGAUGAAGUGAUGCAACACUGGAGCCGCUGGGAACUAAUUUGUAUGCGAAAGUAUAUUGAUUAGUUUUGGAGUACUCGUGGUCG
Conditions: 37 °C
For each entry below, report its self-splicing fitness (ln) value.

Fill blank: measured self-splicing fitness (ln) of the sequence "UUUAAGCAAUAUUACGCAAU" is ____.
-1.55

Same question, "CUUUAGCAAUAUUACGAGUU" this time
-2.96

How about this sequence: "GACUAGCAAUAUUACGCAGA"
-1.62

Now give it for "UCACAGCAAUAUUACGGUGA" too.
-2.77

Follow-up entry: "GUUCAGCAAUAUUACGCCAA"
-1.72

Also need "CGGCAGCAAUAUUACGAGAU" , thanks.
-2.81

Let us now turn to "GGAAAGCAAUAUUACGCAAA"
-1.05

What do we get for "ACAAAGCAAUAUUACGGGAA" ?
-2.48

Same for "UUAUAGCAAUAUUACGGCCC"
-0.921

Now consider "ACCAAGCAAUAUUACGGAUA" .
-1.56

What about "UACCAGCAAUAUUACGGAAA" ?
-0.747

Same for "AGCAAGCAAUAUUACGCGGG"
-3.71

One more sequence: "AAGGAGCAAUAUUACGUUAC"
-1.53

Cool, now "CUACAGCAAUAUUACGGUAA"
-0.344

Also, "GCAAAGCAAUAUUACGUAAA" please.
-0.5

Record: "GAUUAGCAAUAUUACGUGCU"
-1.26

Request: "CUCCAGCAAUAUUACGAUCU"
-1.16

Check "ACCUAGCAAUAUUACGAUGU" too.
0.0835

Now consider "UGUAAGCAAUAUUACGGCGG" .
-0.217

Moving on to the next sequence: "CUCGAGCAAUAUUACGUUGU"
-2.07

Also "UUACAGCAAUAUUACGGAUA" ?
-0.725

"GUCGAGCAAUAUUACGUUGU" , same question.
-2.78

Please give the result for "AGGCAGCAAUAUUACGCUCG" too.
-0.442

Next sequence up: "GACAAGCAAUAUUACGGGCA"
-0.0944

Same question for "GUACAGCAAUAUUACGGUUU" please.
-0.0338

Also "AUAAAGCAAUAUUACGCUGU" , if possible.
-0.246

Query "AAGUAGCAAUAUUACGUUCC" next
-0.678

Try the sequence "AUCCAGCAAUAUUACGGGAU"
-2.9

// next record "GGUCAGCAAUAUUACGUGAG"
0.241

Quick one: "AACUAGCAAUAUUACGACAU"
0.0705

How about this sequence: "AGACAGCAAUAUUACGAAAU"
-1.43

Try the sequence "CUAGAGCAAUAUUACGUCAU"
-2.58

What would you report for "GAGUAGCAAUAUUACGAUGU" ?
-0.716

Ok, now "CCAUAGCAAUAUUACGCAAG"
-0.562

Please answer likewise for "CGAGAGCAAUAUUACGAACA"
-2.84

Also, "GAGGAGCAAUAUUACGAAUG" please.
-1.7

Repeat with "UGUUAGCAAUAUUACGGUUC"
-1.25

Item: "GUCUAGCAAUAUUACGUCCG"
-0.525

Then "CGGGAGCAAUAUUACGAUGC" ?
-2.91

Check "ACCAAGCAAUAUUACGCAUC" too.
-1.74

Proceed to "UGGAAGCAAUAUUACGUCUC"
-2.47

And then "GUAGAGCAAUAUUACGGGUG" , what is it?
-2.93

Entry "UAGCAGCAAUAUUACGAGAC" please
-3.06

// next record "AGCAAGCAAUAUUACGAGAC"
-2.81

Would you kindly repeat that for "CGAGAGCAAUAUUACGAUAG" ?
-2.11

Now give it for "AUUCAGCAAUAUUACGUAUU" too.
-0.558

What would you report for "UUGAAGCAAUAUUACGUAUC" ?
-1.93

What about this sequence? "CGCAAGCAAUAUUACGACGA"
-0.997

Queued: "GAUGAGCAAUAUUACGACCC"
-0.0127

// query: "ACCAAGCAAUAUUACGGGGA"
-1.85

Then this sequence: "UGACAGCAAUAUUACGGCUA"
0.942

Can you check "UCGGAGCAAUAUUACGGGAG" next?
-2.24

// same read-out, input: "GAACAGCAAUAUUACGUUGA"
-1.02

Cool, now "UCGCAGCAAUAUUACGAGGG"
-1.65

Proceed to "UCGUAGCAAUAUUACGCAUG"
-0.84

Continue with "AAGAAGCAAUAUUACGCAGC"
-2.12

Another sequence: "UAUGAGCAAUAUUACGGCCA"
-1.18

// same read-out, input: "CGGUAGCAAUAUUACGGUUG"
-0.0229

Next: "AGGGAGCAAUAUUACGAAUG"
-2.38

Cool, now "AGUUAGCAAUAUUACGGUCG"
-0.715

Try this sequence too: "GUCAAGCAAUAUUACGAUGC"
-0.442

// repeat for "CAUAAGCAAUAUUACGUAAC" and report
-2.1

Now consider "ACUUAGCAAUAUUACGGCGC" .
0.119

What would you report for "ACUGAGCAAUAUUACGGUUU" ?
-2.6

Consider next the sequence "UUUCAGCAAUAUUACGCAGA" in the same way.
-1.6

Please answer likewise for "UAUAAGCAAUAUUACGUAAU"
-0.822

Request: "UGCGAGCAAUAUUACGGCCA"
0.5

---

What self-splicing fitness (ln) was measured for each of the following?
Test: self-splicing fitness, log relative to wild type (ln ratio); higher = more splicing; Tetrahymena group I intron in knt gene, E. coli kanamycin selection, DiMSum; sequences stand for … in CUCUCU…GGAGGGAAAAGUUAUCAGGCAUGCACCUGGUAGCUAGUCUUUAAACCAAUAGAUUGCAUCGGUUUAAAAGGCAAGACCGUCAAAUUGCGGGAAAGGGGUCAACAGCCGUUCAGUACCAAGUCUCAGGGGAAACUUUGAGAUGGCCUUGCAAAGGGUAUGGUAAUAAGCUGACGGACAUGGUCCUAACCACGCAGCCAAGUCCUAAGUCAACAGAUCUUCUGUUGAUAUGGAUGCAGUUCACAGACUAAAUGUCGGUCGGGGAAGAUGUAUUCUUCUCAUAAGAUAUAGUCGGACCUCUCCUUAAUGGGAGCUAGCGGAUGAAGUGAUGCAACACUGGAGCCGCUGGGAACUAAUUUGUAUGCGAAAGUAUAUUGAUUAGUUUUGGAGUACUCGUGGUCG
Conditions: 37 °C
Number only, please.

Requested field: self-splicing fitness (ln). Item: "UUGCAGCAAUAUUACGCGUU"
-1.94

Follow-up entry: "AGGGAGCAAUAUUACGCUUA"
-1.62

Next record, please: "GAGUAGCAAUAUUACGGACU"
-0.487

Entry "AUUCAGCAAUAUUACGGGAA" please
-0.871

Cool, now "UCCCAGCAAUAUUACGCCAA"
-1.63

Same question, "AUGGAGCAAUAUUACGCGCG" this time
-1.27

"UUUUAGCAAUAUUACGAUAG" ?
-0.639

Another sequence to look at: "AGAAAGCAAUAUUACGGAGU"
-1.11

Next sequence: "AUAUAGCAAUAUUACGCUAG"
-1.19

Now this one: "AGUUAGCAAUAUUACGUCAG"
-3.25

Now consider "CUGCAGCAAUAUUACGUAUA" .
-2.16

Repeat with "UGGUAGCAAUAUUACGAUUC"
-2.05

Further, for "AAUUAGCAAUAUUACGAACA" ?
-0.784

Request: "GGGUAGCAAUAUUACGUUCA"
-0.0805

What do we get for "UACUAGCAAUAUUACGGUAG" ?
-1.09

Now this one: "UCUCAGCAAUAUUACGUAUG"
-2.79
